test system: MCF7; experiment: NCI tumour cell line growth inhibition, 48 h
Active and inactive are the calls of the source. No stated cut-off is given here; in the data, active = GI50 up to about 1.1 µM and inactive = higher.
Outcome codes: active, inactive

In [3]: df
Out[3]:
                                   compound  answer_label
0          CC(C)OC(=O)NCCn1cc(-c2ccccc2)nn1      inactive
1  COc1cc2c(cc1OCCCC(=O)Nc1cc(C(=O)Nc3cc(C(=O)Nc4cc(C(=O)NCCCN(C)C)n(C)n4)n(C)n3)n(C)n1)N=CC1CCCN1C2=O (stereo not given)      inactive
2  COc1ccc2c(c1)CC[C@@H]1C2CC[C@]2(C)C(=O)N(C)C(=O)CC12 (stereo not given in full)      inactive
3          CS(=O)(=O)OCCCSCCSCCCOS(C)(=O)=O      inactive
4  CC1(C)OCC(C2OC(=O)C(OCc3ccccc3)=C2OCc2ccccc2)O1 (stereo not given)      inactive
5  O=C(NCP(=O)(c1ccccc1)c1ccccc1)OCc1ccccc1      inactive
6  O=C([C@H](O)[C@@H](O)c1cccc(Cl)c1)C12CC3CC(CC(C3)C1)C2        active
7  Cc1ccc(O)c(-c2cc(-c3ccccc3)nc(/N=C\c3ccccc3)n2)c1      inactive
8                     COCCOCc1nc(C#N)c(N)o1      inactive
9  C/C(CC(O)(/C=N/O)c1ccccc1)=N/O (stereo not given)      inactive
